Entries and their melting point values follow.

Consider the reported melting point for these molecules:
>>> print(df.to_string())
                                   molecule  measurement_name   assay_result
0  CC(C)(C)OC(=O)N[C@H](Cc1cccc(OC(F)(F)C(F)F)n1)[C@@H](O)c1ccc(F)cc1 (racemic)     melting point  109 to 110 °C
1  CC(F)(F)c1ccc(C[C@@H](NC(=O)c2ccc(F)c3ccccc23)[C@@H](O)c2ccc(F)cc2)cc1 (racemic)     melting point  220 to 221 °C
2  CC(C)(C)OC(=O)N[C@H](Cc1cccc(CC(F)(F)C(F)F)c1)[C@@H](O)c1ccc(F)cc1 (racemic)     melting point  168 to 169 °C
3  CC(C)(C)OC(=O)N[C@H](Cc1cccc(OC(F)(F)C(F)F)c1)[C@@H](O)c1ccc(Oc2ccccc2)cn1 (racemic)     melting point  129 to 130 °C
4  COc1ccc([C@H](O)[C@@H](Cc2ccc(C(F)(F)F)cc2)NC(=O)CCc2ccccc2)cc1 (racemic)     melting point  116 to 117 °C
5  O=C(N[C@H](Cc1cccc(OC(F)(F)C(F)F)c1)[C@@H](O)c1cccc(Cl)c1)c1ccc(F)c2ccccc12 (racemic)     melting point  177 to 178 °C
6  COCc1ccc(C(=O)N[C@H](Cc2ccc(C(F)(F)F)cc2)[C@@H](O)c2ccc(F)cc2)c2ccccc12 (racemic)     melting point  170 to 171 °C
7  O=C(CCc1ccccc1)N[C@H](Cc1ccc(C(F)(F)F)cc1)[C@@H](O)c1ccc(F)c(F)c1 (racemic)     melting point  114 to 115 °C
8  CN(C)C(=O)c1ccc([C@H](O)[C@@H](Cc2cccc(OC(F)(F)C(F)F)c2)NC(=O)c2cccc3c2C=CCCC3)cc1 (racemic)     melting point  165 to 166 °C
9  O=C(NC(Cc1ccc(C(F)(F)F)cc1)C(O)c1ccc(F)cc1)c1ccccc1-c1ccccc1 (racemic)     melting point  133 to 134 °C

The molecule listed as O=C(N[C@H](Cc1cccc(OC(F)(F)C(F)F)c1)[C@@H](O)c1ccc(F)cc1)c1cccc2c1OCCCO2 (racemic) shows melting point equal to 147 to 148 °C

The molecule listed as O=C(N[C@H](Cc1ccccc1C(F)(F)F)[C@@H](O)c1ccc(F)cc1)c1ccc(F)c2ccccc12 (racemic) shows melting point equal to 200 to 201 °C

The molecule listed as O=C(N[C@H](Cc1ccc(F)cc1)[C@@H](O)c1ccc(F)cc1)C1CCCCC1 (racemic) shows melting point equal to 203 to 204 °C

====

measurement-name: melting point

Consider the reported melting point for these compounds:
>>> df
                                   compound   assay_result
0  O=C(N[C@H](Cc1ccc(CC(F)(F)C(F)(F)F)cc1)[C@@H](O)c1cccc(Cl)c1)c1cccc2c1C=CCCC2 (racemic)  176 to 177 °C
1  O=C(N[C@H](Cc1cccc(C(F)(F)F)c1)[C@@H](O)c1ccc(F)cc1)C1CCCCC1 (racemic)  190 to 191 °C
2  O=C(N[C@H](Cc1cccc(OC(F)(F)C(F)F)c1)[C@@H](O)c1ccc(Oc2ccccn2)cc1)c1ccc(F)c2ccccc12 (racemic)  176 to 177 °C
3  CC(C)(C)c1ccc(C[C@@H](NC(=O)c2ccc(F)c3ccccc23)[C@@H](O)c2ccc(F)cc2)cc1 (racemic)  149 to 150 °C
4  O=C(N[C@H](Cc1cccc(OC(F)(F)C(F)F)c1)[C@@H](O)c1ccc(O)cc1)c1cccc2c1C=CCCC2 (racemic)  167 to 168 °C

The compound listed as O=C(N[C@H](Cc1ccc(C(F)(F)F)cc1)[C@@H](O)c1ccoc1)c1ccc(F)c2ccccc12 (racemic) shows melting point equal to 206 to 207 °C

====

# study-system: human CETP (Homo sapiens)
# Sequence (P11597 18-493): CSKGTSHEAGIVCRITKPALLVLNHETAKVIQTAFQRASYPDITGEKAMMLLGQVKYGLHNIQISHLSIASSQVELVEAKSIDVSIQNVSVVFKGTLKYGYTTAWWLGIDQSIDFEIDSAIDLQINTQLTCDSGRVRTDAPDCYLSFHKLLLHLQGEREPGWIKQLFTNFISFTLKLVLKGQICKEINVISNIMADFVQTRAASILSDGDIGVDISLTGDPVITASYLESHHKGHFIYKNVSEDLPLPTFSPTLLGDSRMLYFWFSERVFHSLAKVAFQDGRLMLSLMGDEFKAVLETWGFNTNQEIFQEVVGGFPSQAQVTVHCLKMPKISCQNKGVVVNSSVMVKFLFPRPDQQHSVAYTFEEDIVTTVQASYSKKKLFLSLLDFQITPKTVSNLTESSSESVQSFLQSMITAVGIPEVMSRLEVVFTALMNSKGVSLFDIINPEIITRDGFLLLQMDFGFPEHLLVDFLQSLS
# assay-protocol: Assay of cholesteryl ester transfer protein inhibitory activity, 50% human plasma-containing measurement system
# Assay type: biochemical
# experimental-setup: BODIPY-CE-ME donor, VLDL-LDL acceptor, reaction at 37° C. for 60 min.
measurement-name: IC50 (µM)

Consider the reported IC50 for these compounds:
                                   compound  scale_unit  assay_result
0  CC(C)c1ccc(C[C@@H](NC(=O)c2cccc3c2C=CCCC3)[C@@H](O)c2ccc(F)cc2)cc1 (racemic)          µM           2.1
1  O=C(N[C@H](Cc1cccc(OC(F)(F)C(F)F)c1)[C@@H](O)c1ccc(F)cc1)c1cccc2c1C=CCCC2 (racemic)          µM          0.49

a. CCc1cc(Oc2ccc([C@H](O)[C@@H](Cc3cccc(OC(F)(F)C(F)F)c3)NC(=O)c3cccc4c3C=CCCC4)cc2)ccc1Cl (racemic)
b. O=C(N[C@H](Cc1cccc(OC(F)(F)C(F)F)c1)[C@@H](O)c1ccc(F)cc1)c1cccc2c1CCCCC2 (racemic)
Query: Given the listed records, identify the one among a and b with higher IC50. Record your answer as the label of the chosen record.
Reply: b
(b: 2.4 µM, a: 0.66 µM)

====

Entries and their melting point values follow.

                                   molecule   assay_result
0  CC(C)(C)OC(=O)N[C@H](Cc1cccc(OC(F)(F)C(F)F)c1)[C@@H](O)c1ccc(Cl)nc1 (racemic)  119 to 121 °C
1  Cc1ccc(C[C@@H](NC(=O)c2cccc3c2C=CCCC3)[C@@H](O)c2ccc(F)cc2)cc1OC(F)(F)C(F)F (racemic)  168 to 169 °C

The molecule listed as O=C(N[C@H](Cc1ccc(C(F)(F)F)cc1)[C@@H](O)c1ccc(F)cc1)c1ccc(C(=O)c2ccc(F)cc2)cc1 (racemic) shows melting point equal to 156 to 157 °C

The molecule listed as O=C(N[C@H](Cc1ccc(C(F)(F)F)cc1)[C@@H](O)c1ccc(F)cc1)c1cccc(Cl)c1Cl (racemic) shows melting point equal to 187 to 188 °C

====

Entries and their melting point values follow.

Consider the reported melting point for these molecules:
>>> print(df.to_string())
                                   molecule   assay_result
0  O=C(N[C@H](Cc1cccc(S(=O)(=O)C(F)(F)F)c1)[C@@H](O)c1ccc(F)cc1)c1ccc(F)c2ccccc12 (racemic)  157 to 158 °C
1  O=C(CCc1ccccc1)N[C@H](Cc1ccc(C(F)(F)F)cc1)[C@@H](O)c1cccc(F)c1 (racemic)  151 to 152 °C

The molecule listed as O=C(CCCc1ccccc1)N[C@H](Cc1ccc(C(F)(F)F)cc1)[C@@H](O)c1ccc(F)cc1 (racemic) shows melting point equal to 150 to 151 °C

The molecule listed as O=C(N[C@H](Cc1cccc(OC(F)(F)C(F)F)c1)[C@@H](O)c1ccc(Br)cc1)c1cccc2c1C=CCCC2 (racemic) shows melting point equal to 184 to 185 °C

The molecule listed as O=C(N[C@H](Cc1ccc(C(F)(F)F)cc1)[C@@H](O)c1ccc(F)cc1)c1ccc(C(F)(F)F)cc1 (racemic) shows melting point equal to 228 to 229 °C

The molecule listed as O=C(N[C@H](Cc1ccc(C(F)(F)F)cc1)[C@@H](O)c1ccc(F)cc1)c1cccc2cc3ccccc3cc12 (racemic) shows melting point equal to 227 to 228 °C

The molecule listed as O=C(N[C@H](Cc1ccc(C(F)(F)F)cc1)[C@@H](O)c1ccc(F)cc1)C(c1ccccc1)C1CCCC1 (mixture of isomers) shows melting point equal to 201 to 202 °C

The molecule listed as O=C(N[C@H](Cc1ccc(OC(F)(F)F)cc1)[C@@H](O)c1ccc(F)cc1)c1cccc2c1C=CCCC2 (racemic) shows melting point equal to 202 to 203 °C
